# test system: T1, Recombinant Human TNF-α/TNFSF1A (human, UniProt P01375 77-233)
# T1 construct: also called hTNF-α; huTNFα
# T1 sequence (P01375 77-233 limits assumed): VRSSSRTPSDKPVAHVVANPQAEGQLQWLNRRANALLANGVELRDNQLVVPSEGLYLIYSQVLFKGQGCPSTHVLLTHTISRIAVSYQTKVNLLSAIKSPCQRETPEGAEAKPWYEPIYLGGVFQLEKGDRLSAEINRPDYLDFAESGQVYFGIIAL
# measurement notes: SPR (BIACORE), antibody captured, TNFα in solution
readout name: pKd
Field pKd (float): negative decimal logarithm of the concentration in molar.

In the examples that follow, each entry is paired with its recorded pKd.
| binder | pKd |
| --- | --- |
| AB358 (antibody, V domains shown, Full-length humanized antibody made in HEK 293-6E; also called hMAK199VH.1a/hMAK199VL.1a) VH: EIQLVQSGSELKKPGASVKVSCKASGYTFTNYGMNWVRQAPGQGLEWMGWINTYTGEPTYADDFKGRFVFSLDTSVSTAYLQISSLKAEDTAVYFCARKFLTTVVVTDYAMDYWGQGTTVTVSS VL: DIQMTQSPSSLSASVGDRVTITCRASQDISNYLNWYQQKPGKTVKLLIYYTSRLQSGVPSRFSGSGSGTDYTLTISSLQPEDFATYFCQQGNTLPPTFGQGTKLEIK | 9.15 |
| AB380 (antibody, V domains shown, Full-length humanized antibody made in HEK 293-6E; also called hMAK199VH.2a/hMAK199VL.2b) VH: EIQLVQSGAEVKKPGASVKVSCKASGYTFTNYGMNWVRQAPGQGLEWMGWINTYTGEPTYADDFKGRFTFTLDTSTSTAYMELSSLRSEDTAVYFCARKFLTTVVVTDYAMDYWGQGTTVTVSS VL: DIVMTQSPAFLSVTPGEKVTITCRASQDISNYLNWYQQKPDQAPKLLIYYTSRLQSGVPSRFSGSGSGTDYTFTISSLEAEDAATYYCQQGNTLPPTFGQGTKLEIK | 8.74 |

Now consider the entry below.
[Q] Please report the recorded pKd for AB355 (antibody, V domains shown, Full-length humanized antibody made in HEK 293-6E; also called hMAK199VH.1/hMAK199VL.2a) VH: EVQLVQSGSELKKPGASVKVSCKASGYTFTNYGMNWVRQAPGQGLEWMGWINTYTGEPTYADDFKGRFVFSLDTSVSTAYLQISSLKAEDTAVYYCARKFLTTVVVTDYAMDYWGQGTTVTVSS VL: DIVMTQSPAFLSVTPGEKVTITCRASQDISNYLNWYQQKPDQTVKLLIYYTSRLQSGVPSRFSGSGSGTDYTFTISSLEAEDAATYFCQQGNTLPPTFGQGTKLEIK .
[A] 9.23
